Can you tell me Ki for the items I'm about to list?
Hi! Could you send only the number? It should be in nM, unit omitted.

Q: Record `CNc1ccc2c(c1Cl)CCNCC2` : what is its Ki with 5-hydroxytryptamine receptor 2A (Homo sapiens)?
A: 90

Q: What value of Ki on 5-hydroxytryptamine receptor 2A (Homo sapiens) does `Clc1ccc2c(c1Cl)CCNCC2` have?
A: 93

Q: Notebook: pull reported Ki for 5-hydroxytryptamine receptor 2A (Homo sapiens), entry `c1cc2c3c(ccc2o1)CCNCC3`
A: 46

Q: Return Ki measured with 5-hydroxytryptamine receptor 2A (Homo sapiens) given this compound: `Fc1ccc2c(c1Cl)CCNCC2`
Sequence (P28223 whole entry): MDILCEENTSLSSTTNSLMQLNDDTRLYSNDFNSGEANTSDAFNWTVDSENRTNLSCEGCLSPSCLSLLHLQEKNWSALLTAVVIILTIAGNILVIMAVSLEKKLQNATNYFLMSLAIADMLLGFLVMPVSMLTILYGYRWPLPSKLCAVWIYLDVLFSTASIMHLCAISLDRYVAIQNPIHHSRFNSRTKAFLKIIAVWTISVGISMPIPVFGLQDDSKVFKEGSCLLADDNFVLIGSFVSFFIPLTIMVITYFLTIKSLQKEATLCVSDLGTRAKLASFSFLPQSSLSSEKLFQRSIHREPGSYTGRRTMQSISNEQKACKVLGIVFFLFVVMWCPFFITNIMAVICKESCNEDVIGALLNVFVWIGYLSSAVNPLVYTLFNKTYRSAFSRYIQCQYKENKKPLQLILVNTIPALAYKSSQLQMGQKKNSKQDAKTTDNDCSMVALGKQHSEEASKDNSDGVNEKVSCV
A: 130

Q: Param readout= Ki; system= 5-hydroxytryptamine receptor 2A (Homo sapiens); entry= `CN1CCc2ccc([N+](=O)[O-])c(Cl)c2CC1` ; returns value.
A: 400

Q: Field: Ki (5-hydroxytryptamine receptor 2A (Homo sapiens)). Entry: `O=[N+]([O-])c1ccc2c(c1Cl)CCNCC2`
A: 51

Q: Identify the measured Ki of `c1cc2ccc3c(c2o1)CCNCC3` for 5-hydroxytryptamine receptor 2A (Homo sapiens).
A: 99

Q: Given the entry `Clc1c(Br)ccc2c1CCNCC2` , what Ki was observed with 5-hydroxytryptamine receptor 2A (Homo sapiens)?
A: 10

Q: What Ki appears in the records for this compound with 5-hydroxytryptamine receptor 2A (Homo sapiens)? `COc1ccc2c(c1Cl)CCNCC2`
A: 62

Q: Under 5-hydroxytryptamine receptor 2A (Homo sapiens): Ki value of `N#Cc1ccc2c(c1Cl)CCNCC2` ?
A: 30

Measured values drawn from ChEMBL document CHEMBL1144676 for this set.
